- experimentalTarget: plasma purified human AT-III (antithrombin III), in complex with full-length unfractionated heparin (AT-III/UFH)
experimentalReadout: K0.5-mut/K0.5-wt (against Catalyst Biosciences WT FIXa)

{"protein": "FIXa-D104N/K106S/I251S/R318Y/R338E/E410N (protein) chain 1: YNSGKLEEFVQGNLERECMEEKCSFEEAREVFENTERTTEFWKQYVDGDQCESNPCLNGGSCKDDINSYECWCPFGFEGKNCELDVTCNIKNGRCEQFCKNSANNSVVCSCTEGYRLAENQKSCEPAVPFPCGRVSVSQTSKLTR chain 2: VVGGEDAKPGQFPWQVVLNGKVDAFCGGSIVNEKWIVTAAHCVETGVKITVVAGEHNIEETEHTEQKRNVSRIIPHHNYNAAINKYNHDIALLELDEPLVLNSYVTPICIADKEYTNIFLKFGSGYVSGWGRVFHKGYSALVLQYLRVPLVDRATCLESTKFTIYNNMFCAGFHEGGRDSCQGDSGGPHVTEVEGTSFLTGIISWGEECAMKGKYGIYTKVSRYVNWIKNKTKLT", "valueComparator": "=", "endpointResult": 464}
{"protein": "FIXa-R318Y/R338E/T412A (protein) chain 1: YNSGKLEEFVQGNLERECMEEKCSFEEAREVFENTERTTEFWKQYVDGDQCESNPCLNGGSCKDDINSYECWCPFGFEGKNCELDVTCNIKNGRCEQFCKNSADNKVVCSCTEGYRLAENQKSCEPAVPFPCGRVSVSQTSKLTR chain 2: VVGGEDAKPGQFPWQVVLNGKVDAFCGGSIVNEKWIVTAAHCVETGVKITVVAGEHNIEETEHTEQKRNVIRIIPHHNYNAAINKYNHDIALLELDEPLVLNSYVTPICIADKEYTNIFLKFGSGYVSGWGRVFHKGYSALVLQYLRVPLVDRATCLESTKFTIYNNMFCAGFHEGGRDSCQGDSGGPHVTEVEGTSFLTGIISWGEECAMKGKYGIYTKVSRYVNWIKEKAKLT", "valueComparator": "=", "endpointResult": 396}
{"protein": "FIXa-D104N/K106S/I251S/R318Y/R338E/R403E/E410N (protein) chain 1: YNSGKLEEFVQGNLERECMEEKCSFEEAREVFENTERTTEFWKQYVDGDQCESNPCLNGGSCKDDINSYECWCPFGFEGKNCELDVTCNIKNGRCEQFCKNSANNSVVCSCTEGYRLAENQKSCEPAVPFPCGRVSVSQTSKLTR chain 2: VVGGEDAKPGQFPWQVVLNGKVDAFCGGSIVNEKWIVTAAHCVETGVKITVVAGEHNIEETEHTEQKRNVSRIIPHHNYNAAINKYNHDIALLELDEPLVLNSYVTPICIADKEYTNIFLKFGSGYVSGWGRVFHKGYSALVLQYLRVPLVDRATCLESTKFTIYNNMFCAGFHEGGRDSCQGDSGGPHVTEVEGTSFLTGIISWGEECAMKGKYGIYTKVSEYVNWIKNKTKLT", "valueComparator": ">", "endpointResult": 517}
{"protein": "FIXa-R318Y/R338E/R403E/E410S (protein) chain 1: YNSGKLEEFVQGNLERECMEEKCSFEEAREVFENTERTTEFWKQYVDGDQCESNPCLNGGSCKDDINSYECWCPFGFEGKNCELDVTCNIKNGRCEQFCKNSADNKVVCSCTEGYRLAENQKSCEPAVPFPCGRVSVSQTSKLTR chain 2: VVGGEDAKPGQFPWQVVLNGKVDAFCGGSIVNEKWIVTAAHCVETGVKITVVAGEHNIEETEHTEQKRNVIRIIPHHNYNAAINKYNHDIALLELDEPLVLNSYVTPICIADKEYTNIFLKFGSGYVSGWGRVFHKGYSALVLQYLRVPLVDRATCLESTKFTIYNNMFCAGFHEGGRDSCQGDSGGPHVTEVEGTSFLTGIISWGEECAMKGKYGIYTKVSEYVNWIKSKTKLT", "valueComparator": ">", "endpointResult": 517}
{"protein": "FIXa-Y155F/N260S/R318Y/R338E/R403E/E410N (protein) chain 1: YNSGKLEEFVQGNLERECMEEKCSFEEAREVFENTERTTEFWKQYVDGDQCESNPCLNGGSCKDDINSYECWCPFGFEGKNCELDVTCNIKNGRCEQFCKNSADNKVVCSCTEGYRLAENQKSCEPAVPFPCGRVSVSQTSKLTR chain 2: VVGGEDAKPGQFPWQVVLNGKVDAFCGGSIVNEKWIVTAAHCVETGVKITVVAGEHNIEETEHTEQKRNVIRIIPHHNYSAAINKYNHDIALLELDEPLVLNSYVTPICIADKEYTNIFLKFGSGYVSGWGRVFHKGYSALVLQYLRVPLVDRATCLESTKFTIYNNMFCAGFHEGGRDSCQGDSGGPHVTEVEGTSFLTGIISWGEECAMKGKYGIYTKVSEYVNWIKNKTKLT", "valueComparator": "=", "endpointResult": 501}
{"protein": "FIXa-R318Y/R338E/R403E/E410N/T412V (protein) chain 1: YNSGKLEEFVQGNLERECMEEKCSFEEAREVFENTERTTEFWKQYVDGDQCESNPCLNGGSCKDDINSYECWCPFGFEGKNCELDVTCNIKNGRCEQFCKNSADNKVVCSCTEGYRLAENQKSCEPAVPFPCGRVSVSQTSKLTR chain 2: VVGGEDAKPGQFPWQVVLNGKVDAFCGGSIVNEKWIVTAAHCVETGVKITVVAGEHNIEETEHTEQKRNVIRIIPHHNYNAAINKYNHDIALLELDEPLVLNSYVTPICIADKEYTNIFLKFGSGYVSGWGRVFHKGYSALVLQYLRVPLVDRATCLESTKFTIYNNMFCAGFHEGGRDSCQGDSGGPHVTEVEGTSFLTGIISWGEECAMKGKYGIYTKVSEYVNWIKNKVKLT", "valueComparator": ">", "endpointResult": 517}
{"protein": "FIXa-Y155F/K247N/N249S/R318Y/R338E/R403E/E410N (protein) chain 1: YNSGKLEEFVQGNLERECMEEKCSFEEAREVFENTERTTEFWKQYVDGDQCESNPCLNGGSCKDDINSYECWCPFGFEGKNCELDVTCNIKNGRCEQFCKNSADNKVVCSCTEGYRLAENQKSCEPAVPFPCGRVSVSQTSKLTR chain 2: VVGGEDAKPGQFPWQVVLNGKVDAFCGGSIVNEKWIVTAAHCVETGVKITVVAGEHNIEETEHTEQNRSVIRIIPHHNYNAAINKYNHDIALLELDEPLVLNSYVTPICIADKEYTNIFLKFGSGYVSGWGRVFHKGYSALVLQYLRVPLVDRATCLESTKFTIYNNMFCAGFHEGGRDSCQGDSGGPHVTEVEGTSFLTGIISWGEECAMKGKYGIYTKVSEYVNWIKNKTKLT", "valueComparator": ">", "endpointResult": 517}

meta.source: patent US20210230570
